inhibition at 10 µM values for the compounds below.
- Tested on: MDA-MB-468
- assay.name: NCI-60 one-dose screen
- Type: cell-based
- stated.conditions: Homo sapiens; MDA-MB-468, Breast Cancer panel; single dose 10^−5 M; read-out: Growth inhibition %
Report the value in % with no unit label.

Here are 6 compounds together with their reported answers.
| compound | result.units | inhibition at 10 µM |
| --- | --- | --- |
| COc1ccc2nc3ccccc3c(NCc3ccc(Cl)cc3)c2c1 [Compound 29] | % | 131 |
| COc1ccc(CNc2c3ccccc3nc3ccccc23)cc1OC [Compound 18, Acridin-9-yl-(3,4-dimethoxybenzyl)-amine] | % | 123 |
| Fc1ccccc1CNc1c2ccccc2nc2ccccc12 [Compound 8, Acridin-9-yl-(2-fluorobenzyl)-amine] | % | 78.2 |
| COc1ccc(CNc2c3ccccc3nc3ccc(OC)cc23)cc1 [Compound 27] | % | 115 |
| Cc1ccccc1CNc1c2ccccc2nc2ccccc12 [Compound 2, Acridin-9-yl-(2-methylbenzyl)-amine] | % | 94.2 |
| COc1cccc(CNc2c3ccccc3nc3ccccc23)c1 [Compound 6, Acridin-9-yl-(3-methoxybenzyl)-amine] | % | 86.4 |

Fill in: inhibition at 10 µM of Cc1ccc2nc3ccccc3c(NCc3ccccc3)c2c1 [Compound 30, Benzyl-(2-methylacridin-9-yl)-amine] is ___
111

Ok, now c1ccc(CNc2c3ccccc3nc3ccccc23)cc1 [Compound 1, Acridin-9-yl-benzyl-amine]
80.7
